# Test system: E. faecium GC 4556
# Procedure summary: MIC, broth microdilution
# Experimental context: Enterococcus faecium, GC4556, E. faecium GC 4556; Mouse Serum pre-incubation
Assay metric: MIC (µg/mL)
The answer is to be given in µg/mL; state only the numeric part.

CCCN(CC(=O)Nc1cc(N(C)C)c2c(c1O)C(=O)C1=C(O)[C@]3(O)C(=O)C(C(N)=O)=C(O)[C@@H](N(C)C)[C@@H]3C[C@@H]1C2)C(=O)OCOC(=O)c1ccc(F)cc1    1
CCCN(CC(=O)Nc1cc(N(C)C)c2c(c1O)C(=O)C1=C(O)[C@]3(O)C(=O)C(C(N)=O)=C(O)[C@@H](N(C)C)[C@@H]3C[C@@H]1C2)C(=O)OCOC(=O)c1ccc(OC)cc1    1
CCCN(CC(=O)Nc1cc(N(C)C)c2c(c1O)C(=O)C1=C(O)[C@]3(O)C(=O)C(C(N)=O)=C(O)[C@@H](N(C)C)[C@@H]3C[C@@H]1C2)C(=O)OCc1ccccc1    4

Query string: Give E. faecium GC 4556 MIC for the following compound: CCCCN(CC(=O)Nc1cc(N(C)C)c2c(c1O)C(=O)C1=C(O)[C@]3(O)C(=O)C(C(N)=O)=C(O)[C@@H](N(C)C)[C@@H]3C[C@@H]1C2)C(=O)OCOC(=O)c1ccc(F)cc1
Result string: 1

* * *

# Test system: Staph. aureus Smith
# Procedure summary: In vivo activity (oral, iv; ED50) against Staph. aureus Smith in mice
# Experimental context: Staphylococcus aureus, in Mus musculus, po, read-out: ED50 Staph Smith SOD
Assay metric: ED50 (mg/kg)
The answer is to be given in mg/kg; state only the numeric part.

Query string: Look up and report measured ED50 for this entry: CN(C)c1cc(NC(=O)CN(C(=O)OCOC(=O)c2ccc(F)cc2)C(C)(C)C)c(O)c2c1C[C@H]1C[C@H]3[C@H](N(C)C)C(O)=C(C(N)=O)C(=O)[C@@]3(O)C(O)=C1C2=O
Result string: 10.7

* * *

# Test system: E. coli
# Procedure summary: Range of MIC for E. coli strains
# Experimental context: Escherichia coli, read-out: Minimum inhibitory concentration (MIC), E. coli (mouse serum)
Assay metric: MIC

Reference set, count: 2
CCCCN(CC(=O)Nc1cc(N(C)C)c2c(c1O)C(=O)C1=C(O)[C@]3(O)C(=O)C(C(N)=O)=C(O)[C@@H](N(C)C)[C@@H]3C[C@@H]1C2)C(=O)OCOC(=O)c1ccco1 [Example 30]    0.5 to 1 µg/mL
CCCCN(CC(=O)Nc1cc(N(C)C)c2c(c1O)C(=O)C1=C(O)[C@]3(O)C(=O)C(C(N)=O)=C(O)[C@@H](N(C)C)[C@@H]3C[C@@H]1C2)C(=O)OCOC(=O)C12CC3CC(CC(C3)C1)C2 [Example 39]    1 to 4 µg/mL

Pending molecule:
Query string: Look up and report measured MIC for this entry: CCCCN(CC(=O)Nc1cc(N(C)C)c2c(c1O)C(=O)C1=C(O)[C@]3(O)C(=O)C(C(N)=O)=C(O)[C@@H](N(C)C)C3CC1C2)C(=O)OCOC(=O)c1ccc(OC)cc1 (stereo partly drawn) [Example 2]
Result string: 1 to 4 µg/mL

* * *

# System: E. coli GC 6465
# Procedure summary: MIC, broth microdilution
# Experimental context: Escherichia coli, GC6465, read-out: MINIMAL INHIBITORY CONCENTRATION MIC, pre-incubated in Mouse Serum
Assay metric: MIC
# number then unit; no other words

CC(C)C(=O)OCOC(=O)N(CC(=O)Nc1cc(N(C)C)c2c(c1O)C(=O)C1=C(O)[C@]3(O)C(=O)C(C(N)=O)=C(O)[C@@H](N(C)C)[C@@H]3C[C@@H]1C2)C(C)(C)C    2 µg/mL
CN(C)c1cc(NC(=O)CN(C(=O)OCOC(=O)C2CCCC2)C(C)(C)C)c(O)c2c1C[C@H]1C[C@H]3[C@H](N(C)C)C(O)=C(C(N)=O)C(=O)[C@@]3(O)C(O)=C1C2=O    2 µg/mL

Query string: Look up and report measured MIC for this entry: CCCN(CC(=O)Nc1cc(N(C)C)c2c(c1O)C(=O)C1=C(O)[C@]3(O)C(=O)C(C(N)=O)=C(O)[C@@H](N(C)C)[C@@H]3C[C@@H]1C2)C(=O)OCOC(=O)c1cccs1
Result string: 8 µg/mL

Query string: Look up and report measured MIC for this entry: CCCN(CC(=O)Nc1cc(N(C)C)c2c(c1O)C(=O)C1=C(O)[C@]3(O)C(=O)C(C(N)=O)=C(O)[C@@H](N(C)C)[C@@H]3C[C@@H]1C2)C(=O)OCOC(=O)c1ccsc1
Result string: 4 µg/mL
